# Tested on: SW 1271 complex spheroids, viability
# assay protocol: Anticancer human tumor SW 1271 cell line growth inhibition [LSD1];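 also: spheroids exposed to agents for 7 days before luminescence read; 100% = DMSO vehicle control viability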
# measurement context: second compound 0.1 µM; first compound 0.000316 µM; stronger effect = lower value
Checkbox rule: viability, T/C lower than 90% = yes (1); viability, T/C not lower than 90% = no (0).

* CC(C)CC(NC(=O)C(Cc1ccccc1)NC(=O)c1cnccn1)B(O)O (stereo not drawn) + NC1CCC(NC2CC2c2ccccc2)CC1 | yes (1)
* Cn1ncnc1C1c2n[nH]c(=O)c3cc(F)cc(c23)NC1c1ccc(F)cc1 (stereo not drawn) + NC1CCC(NC2CC2c2ccccc2)CC1 | no (0)
* Cn1ncnc1C1c2n[nH]c(=O)c3cc(F)cc(c23)NC1c1ccc(F)cc1 (stereo not drawn) + NC1CC1c1ccc(-c2cccc(O)c2)cc1 | no (0)
* CC(C)CC(NC(=O)CNC(=O)c1cc(Cl)ccc1Cl)B1OC(=O)CC(CC(=O)O)(C(=O)O)O1 (stereo not drawn) + NC1CC1c1ccc(-c2cccc(O)c2)cc1 | yes (1)
* CC[C@@]1(O)C(=O)OCc2c1cc1n(c2=O)Cc2cc3c(CN(C)C)c(O)ccc3nc2-1 + NC1CC1c1ccc(-c2cccc(O)c2)cc1 | no (0)
* CC(C)CC(NC(=O)C(Cc1ccccc1)NC(=O)c1cnccn1)B(O)O (stereo not drawn) + NC1CC1c1ccc(-c2cccc(O)c2)cc1 | yes (1)

Next molecule, please.
Problem: Does CC(C)CC(NC(=O)CNC(=O)c1cc(Cl)ccc1Cl)B1OC(=O)CC(CC(=O)O)(C(=O)O)O1 (stereo not drawn) + NC1CCC(NC2CC2c2ccccc2)CC1 have viability, T/C strictly under 90%?
Solution: no (0)
